# credit: paper PMC11325505

Test system: Methicilin-Resistant S. aureus 331 Strain
Assay: Mode of antimicrobial action with erythromycin, ermC-positive strain
Format: cell-based
Settings: MRSA 331; with erythromycin
Would you mind telling me the reported FIC (Fractional Inhibitory Concentration Index) of each entry?
Give bare numbers.

> print(dat)
                                   compound  recorded.value
1  O=c1cc(-c2ccc(O)c(O)c2)oc2cc(O)cc(O)c12 [compound 10, luteolin, reference compound]            1.12

Go through the list and state FIC (Fractional Inhibitory Concentration Index) for each entry.
1. O=c1cc(-c2ccc(O)c(O)c2)oc2c(Nc3ccc(C(F)(F)F)cc3)c(O)cc(O)c12
2. COc1ccc(Nc2c(O)cc(O)c3c(=O)cc(-c4ccc(O)c(O)c4)oc23)cc1

stdout:
[1.00, 1.01]

Go through the list and state FIC (Fractional Inhibitory Concentration Index) for each entry.
1. O=c1cc(-c2ccc(O)c(O)c2)oc2c(Nc3ccc(F)cc3)c(O)cc(O)c12
2. O=c1c(O)c(-c2ccc(O)c(O)c2)oc2cc(O)cc(O)c12 [compound 4, quercetin, reference compound]

stdout:
1.00
0.99
